Attribution: ChEMBL document CHEMBL1131851

- assay-notes: Acid dissociation constant of the compound.
- Assay type: ADME
result-type: pKa

molecule	result-type	val
O=C(O)CSc1c(F)c(F)c(C(=O)O)c(-c2c3cc(F)c(=O)cc-3oc3cc(O)c(F)cc23)c1F	pKa	4.8
O=C(O)c1ccc(C(=O)O)c(-c2c3ccc(=O)cc-3oc3cc(O)ccc23)c1 [6-Carboxyfluorescein]	pKa	6.4
